Target: Protein cereblon/Serine/threonine-protein kinase PLK4 (Homo sapiens, UniProt O00444+Q96SW2)
Sequence (O00444 whole entry, looked up): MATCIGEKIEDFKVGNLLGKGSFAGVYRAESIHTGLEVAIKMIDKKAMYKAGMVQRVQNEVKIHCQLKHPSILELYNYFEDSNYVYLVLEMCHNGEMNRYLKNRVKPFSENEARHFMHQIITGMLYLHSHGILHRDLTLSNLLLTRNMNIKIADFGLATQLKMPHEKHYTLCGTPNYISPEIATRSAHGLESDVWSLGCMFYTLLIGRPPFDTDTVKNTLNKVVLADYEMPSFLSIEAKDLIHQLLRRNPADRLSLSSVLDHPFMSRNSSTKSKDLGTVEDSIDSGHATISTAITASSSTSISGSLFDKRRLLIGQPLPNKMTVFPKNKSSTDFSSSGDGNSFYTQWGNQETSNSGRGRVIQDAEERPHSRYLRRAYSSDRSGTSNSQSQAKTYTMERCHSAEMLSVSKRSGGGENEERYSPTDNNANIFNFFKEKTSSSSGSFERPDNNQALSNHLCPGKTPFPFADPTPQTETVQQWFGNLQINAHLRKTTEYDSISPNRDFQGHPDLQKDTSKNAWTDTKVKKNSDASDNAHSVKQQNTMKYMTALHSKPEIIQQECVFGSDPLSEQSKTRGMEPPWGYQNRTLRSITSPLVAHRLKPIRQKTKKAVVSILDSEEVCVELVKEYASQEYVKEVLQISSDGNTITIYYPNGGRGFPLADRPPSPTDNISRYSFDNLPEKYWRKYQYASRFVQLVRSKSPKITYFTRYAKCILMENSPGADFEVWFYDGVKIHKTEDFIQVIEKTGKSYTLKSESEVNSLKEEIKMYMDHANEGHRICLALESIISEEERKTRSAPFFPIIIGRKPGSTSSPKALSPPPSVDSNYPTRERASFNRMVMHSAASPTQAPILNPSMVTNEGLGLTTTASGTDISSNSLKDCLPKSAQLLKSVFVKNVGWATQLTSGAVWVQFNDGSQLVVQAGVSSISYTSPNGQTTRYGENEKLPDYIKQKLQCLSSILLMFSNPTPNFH
Sequence (Q96SW2 whole entry, looked up): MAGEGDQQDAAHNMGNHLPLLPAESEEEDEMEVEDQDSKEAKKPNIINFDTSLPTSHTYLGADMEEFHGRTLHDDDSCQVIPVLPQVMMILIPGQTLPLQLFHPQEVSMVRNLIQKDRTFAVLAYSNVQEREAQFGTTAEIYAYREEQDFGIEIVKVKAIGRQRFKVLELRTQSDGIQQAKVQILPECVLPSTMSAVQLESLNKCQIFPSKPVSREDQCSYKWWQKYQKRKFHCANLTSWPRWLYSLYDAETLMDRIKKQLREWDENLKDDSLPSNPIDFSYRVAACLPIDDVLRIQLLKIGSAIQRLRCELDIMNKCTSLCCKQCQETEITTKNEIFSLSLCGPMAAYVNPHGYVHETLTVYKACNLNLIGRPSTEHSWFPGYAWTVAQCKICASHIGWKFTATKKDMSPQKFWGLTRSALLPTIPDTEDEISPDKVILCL
Experiment: Protac activity at CRBN/PLK4 in human MCF7 cells at 1 uM incubated for 48 hrs by Western blot analysis
Type: cell-based
I'd appreciate it if you marked entries Met when Activity is lower than 40% and Not met when it is not.

# example entries with known answers
compound	class name
Cc1cc(Nc2nc(NCc3ccc(F)cc3F)nc3c2cnn3C2CCN(C(=O)CCCOc3ccc4c(c3)C(=O)N(C3CCC(=O)NC3=O)C4=O)CC2)n[nH]1 (stereo unspecified)	Not met
Cc1cc(Nc2nc(NCc3ccc(F)cc3F)nc3c2cnn3C2CCN(C(=O)CCCCCCCCCCCCCCCOc3ccc4c(c3)C(=O)N(C3CCC(=O)NC3=O)C4=O)CC2)n[nH]1 (stereo unspecified)	Met
Cc1cc(Nc2nc(NCc3ccc(F)cc3F)nc3c2cnn3C2CCN(C(=O)CCCCCCCCCCCOc3ccc4c(c3)C(=O)N(C3CCC(=O)NC3=O)C4=O)CC2)n[nH]1 (stereo unspecified)	Met
Cc1cc(Nc2nc(NCc3ccc(F)cc3F)nc3c2cnn3C2CCN(C(=O)CC3CCN(c4ccc5c(c4)C(=O)N(C4CCC(=O)NC4=O)C5=O)C3)CC2)n[nH]1 (stereo unspecified)	Not met
Cc1cc(Nc2nc(NCc3ccc(F)cc3F)nc3c2cnn3C2CCN(C(=O)CCCCCCCCCOc3ccc4c(c3)C(=O)N(C3CCC(=O)NC3=O)C4=O)CC2)n[nH]1 (stereo unspecified)	Not met

In the following, a different compound is considered.
Task: Identify whether the compound Cc1cc(Nc2nc(NCc3ccc(F)cc3F)nc3c2cnn3C2CCN(CC3CCN(c4ccc5c(c4)C(=O)N(C4CCC(=O)NC4=O)C5=O)CC3)CC2)n[nH]1 (stereo unspecified) records Activity below 40%.
Result: Met
